Target: Tyrosine-protein kinase ITK/TSK (Homo sapiens, UniProt Q08881)
Sequence (Q08881 whole entry): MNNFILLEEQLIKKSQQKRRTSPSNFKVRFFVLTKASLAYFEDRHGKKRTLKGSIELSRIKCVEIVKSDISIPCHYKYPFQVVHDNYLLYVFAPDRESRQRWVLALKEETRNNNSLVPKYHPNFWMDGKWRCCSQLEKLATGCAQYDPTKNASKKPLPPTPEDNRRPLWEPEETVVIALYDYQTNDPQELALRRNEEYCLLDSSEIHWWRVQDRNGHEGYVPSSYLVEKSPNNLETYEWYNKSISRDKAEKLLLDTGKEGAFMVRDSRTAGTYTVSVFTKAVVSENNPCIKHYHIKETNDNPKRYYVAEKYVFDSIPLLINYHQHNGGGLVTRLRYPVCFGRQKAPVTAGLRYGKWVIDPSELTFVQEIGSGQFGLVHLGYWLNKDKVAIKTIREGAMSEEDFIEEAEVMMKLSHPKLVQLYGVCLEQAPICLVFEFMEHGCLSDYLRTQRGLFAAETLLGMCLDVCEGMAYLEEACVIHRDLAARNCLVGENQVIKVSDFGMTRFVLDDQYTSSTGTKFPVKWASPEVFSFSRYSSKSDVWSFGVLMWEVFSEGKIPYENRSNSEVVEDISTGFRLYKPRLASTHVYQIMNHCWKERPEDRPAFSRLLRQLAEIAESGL
Assay: Inhibition of full-length recombinant human GST-tagged ITK expressed in baculovirus expression system by Z'-LYTE assay
quantity.name: IC50 (nM)

>>> val("O=C(NCC(F)(F)F)c1cc(-c2cnn3cc(-c4ccc(OCCN5CCCCC5)cc4)cnc23)cs1")
26
>>> val("Cn1cc(-c2cnc3c(-c4csc(C(=O)NCC(F)(F)F)c4)cnn3c2)cn1")
94
>>> val("Cn1cc(-c2cnc3c(-c4csc(C(=O)N[C@@H]5CCCC[C@@H]5N)c4)cnn3c2)cn1 (racemic)")
26
>>> val("Cc1sc(C(=O)N[C@@H]2[C@H](N)CCCC2(F)F)cc1-c1cnn2cc(Cl)cnc12")
4200

---

Biological target: Insulin receptor (Homo sapiens, UniProt P06213)
Sequence (P06213 28-758 limits assumed): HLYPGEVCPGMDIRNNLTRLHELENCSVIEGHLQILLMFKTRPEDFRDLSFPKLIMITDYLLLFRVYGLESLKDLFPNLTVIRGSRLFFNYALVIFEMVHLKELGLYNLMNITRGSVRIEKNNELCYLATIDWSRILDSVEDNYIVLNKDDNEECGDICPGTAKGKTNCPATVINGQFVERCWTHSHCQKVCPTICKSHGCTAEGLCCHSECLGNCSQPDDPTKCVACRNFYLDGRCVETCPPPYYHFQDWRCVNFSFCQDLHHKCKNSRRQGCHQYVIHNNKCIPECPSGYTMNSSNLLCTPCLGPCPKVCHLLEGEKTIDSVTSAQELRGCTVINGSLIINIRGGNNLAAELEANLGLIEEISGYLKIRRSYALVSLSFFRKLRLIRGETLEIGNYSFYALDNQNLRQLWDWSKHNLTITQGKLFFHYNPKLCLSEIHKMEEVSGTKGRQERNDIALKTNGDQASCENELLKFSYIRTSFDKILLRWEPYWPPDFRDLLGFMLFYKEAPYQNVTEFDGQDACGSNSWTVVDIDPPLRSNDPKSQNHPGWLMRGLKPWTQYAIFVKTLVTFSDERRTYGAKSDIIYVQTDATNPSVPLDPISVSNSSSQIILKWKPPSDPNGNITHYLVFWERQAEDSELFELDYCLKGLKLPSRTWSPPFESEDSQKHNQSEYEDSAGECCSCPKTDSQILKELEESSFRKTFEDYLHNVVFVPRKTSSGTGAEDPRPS
Sequence (P06213 763-1382 limits assumed): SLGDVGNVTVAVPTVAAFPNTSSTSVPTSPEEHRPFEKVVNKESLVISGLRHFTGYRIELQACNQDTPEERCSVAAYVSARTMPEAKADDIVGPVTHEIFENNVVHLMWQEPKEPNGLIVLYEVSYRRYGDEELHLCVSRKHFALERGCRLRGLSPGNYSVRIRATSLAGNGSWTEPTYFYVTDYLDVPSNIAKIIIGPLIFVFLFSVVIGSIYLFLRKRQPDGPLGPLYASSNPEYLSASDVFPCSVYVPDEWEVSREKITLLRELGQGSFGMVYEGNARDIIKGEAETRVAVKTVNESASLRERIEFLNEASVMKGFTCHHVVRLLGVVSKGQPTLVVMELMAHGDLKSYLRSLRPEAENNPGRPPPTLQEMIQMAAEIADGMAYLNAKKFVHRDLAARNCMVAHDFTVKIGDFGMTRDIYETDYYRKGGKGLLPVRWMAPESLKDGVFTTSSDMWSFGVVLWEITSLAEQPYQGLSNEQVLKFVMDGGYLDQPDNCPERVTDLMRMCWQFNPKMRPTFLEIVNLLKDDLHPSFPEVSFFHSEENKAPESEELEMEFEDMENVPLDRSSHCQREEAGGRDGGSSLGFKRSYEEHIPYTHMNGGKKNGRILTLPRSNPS
Experiment: Inhibition of recombinant human GST-tagged cytoplasmic INSR (1011 to 1382 residues) expressed in baculovirus expression system by Z'-LYTE assay
# Lookup of reported IC50 keyed by entry
quantity.name: IC50

>>> val("Cn1cc(-c2cnc3c(-c4csc(C(=O)N[C@@H]5CCCC[C@@H]5N)c4)cnn3c2)cn1 (racemic)")
"> 10 µM"
>>> val("O=C(NCC(F)(F)F)c1cc(-c2cnn3cc(-c4ccc(OCCN5CCCCC5)cc4)cnc23)cs1")
"55 µM"
>>> val("Cc1sc(C(=O)N[C@@H]2[C@H](N)CCCC2(F)F)cc1-c1cnn2cc(Cl)cnc12")
"> 100 µM"
>>> val("Cn1cc(-c2cnc3c(-c4csc(C(=O)NCC(F)(F)F)c4)cnn3c2)cn1")
"> 100 µM"

---

Biological target: MAP/microtubule affinity-regulating kinase 3 (Homo sapiens, UniProt P27448)
Sequence (P27448 whole entry): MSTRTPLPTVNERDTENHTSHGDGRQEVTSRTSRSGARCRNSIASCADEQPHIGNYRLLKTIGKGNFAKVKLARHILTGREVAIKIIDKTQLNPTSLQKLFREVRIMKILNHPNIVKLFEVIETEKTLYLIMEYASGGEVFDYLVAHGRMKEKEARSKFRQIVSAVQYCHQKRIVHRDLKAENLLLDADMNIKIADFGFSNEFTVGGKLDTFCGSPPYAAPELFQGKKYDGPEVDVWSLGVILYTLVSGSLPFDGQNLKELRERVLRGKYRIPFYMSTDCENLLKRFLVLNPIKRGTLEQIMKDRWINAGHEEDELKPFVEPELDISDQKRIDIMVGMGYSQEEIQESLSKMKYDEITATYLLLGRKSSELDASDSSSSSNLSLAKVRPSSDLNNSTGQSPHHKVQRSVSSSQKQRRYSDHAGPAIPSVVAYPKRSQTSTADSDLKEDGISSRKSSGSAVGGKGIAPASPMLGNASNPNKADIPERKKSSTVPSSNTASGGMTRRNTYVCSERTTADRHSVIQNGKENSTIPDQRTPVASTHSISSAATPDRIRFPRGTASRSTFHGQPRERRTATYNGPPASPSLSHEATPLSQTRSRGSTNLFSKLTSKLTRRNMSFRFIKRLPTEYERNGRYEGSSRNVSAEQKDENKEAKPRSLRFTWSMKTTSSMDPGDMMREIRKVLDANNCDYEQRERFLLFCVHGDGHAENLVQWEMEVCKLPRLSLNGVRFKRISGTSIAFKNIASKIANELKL
Assay: Inhibition of full-length recombinant human GST-tagged MARK3 expressed in baculovirus expression system using biotinylated-Cdc25C peptide substrate measured after 2 hrs by HTRF assay
pIC50: −log10 of the molar value.
quantity.name: pIC50

>>> val("Cn1cc(-c2cnc3c(-c4csc(C(=O)N[C@@H]5CCCC[C@H]5O)c4)cnn3c2)cn1 (mixture of isomers)")
7.62
>>> val("COCCOc1ccc(-c2cnc3c(-c4csc(C(=O)NCC(F)(F)F)c4)cnn3c2)cc1")
8.30
>>> val("Cn1cc(-c2cnc3c(-c4csc(C(=O)NC(CO)C5CC5)c4)cnn3c2)cn1 (stereo not drawn)")
8.05
>>> val("Cc1sc(C(=O)N[C@@H]2[C@H](N)CCCC2(F)F)cc1-c1cnn2cc(Cl)cnc12")
8.30
>>> val("Cn1cc(-c2cnc3c(-c4csc(C(=O)NCCC(N)C(F)(F)F)c4)cnn3c2)cn1 (stereo not drawn)")
8.00
>>> val("Cn1cc(-c2cnc3c(-c4csc(C(=O)NCCC(N)CF)c4)cnn3c2)cn1 (stereo not drawn)")
7.66
>>> val("Cn1cc(-c2cnc3c(-c4csc(C(=O)NCCC(N)C(F)F)c4)cnn3c2)cn1 (stereo not drawn)")
7.82
>>> val("Cc1sc(C(=O)N[C@@H]2[C@H](N)CCCC2(F)F)cc1-c1cnn2cccnc12")
8.62
>>> val("Cn1cc(-c2cnc3c(-c4csc(C(=O)N[C@@H]5CCCC[C@H]5N)c4)cnn3c2)cn1 (racemic)")
9.00
>>> val("O=C(NCC(F)(F)F)c1cc(-c2cnn3cc(-c4cn[nH]c4)cnc23)cs1")
7.00
>>> val("Cc1sc(C(=O)N[C@H]2CCCC(F)(F)[C@H]2N)cc1-c1cnn2cc(-c3cnn(C)c3)cnc12")
6.89
>>> val("Cn1cc(-c2cnc3c(-c4csc(C(=O)N[C@@H]5CCC[C@H]5N)c4)cnn3c2)cn1 (racemic)")
8.52
>>> val("Cn1cc(-c2cnc3c(-c4csc(C(=O)N[C@@H]5CCC[C@@H]5O)c4)cnn3c2)cn1 (racemic)")
7.37
>>> val("Cc1sc(C(=O)N[C@@H]2CCCC[C@@H]2N)cc1-c1cnn2cc(-c3cnn(C)c3)cnc12 (racemic)")
8.89
>>> val("Cn1cc(-c2cnc3c(-c4csc(C(=O)N[C@@H]5CCC[C@H]5O)c4)cnn3c2)cn1 (racemic)")
8.00
>>> val("Cn1cc(-c2cnc3c(-c4csc(C(=O)N[C@@H]5CCCC[C@@H]5O)c4)cnn3c2)cn1 (racemic)")
8.05

---

Biological target: Dual specificity tyrosine-phosphorylation-regulated kinase 1A (Homo sapiens)
Assay: Inhibition of full-length recombinant human GST-tagged DYRK1A expressed in baculovirus expression system by Z'-LYTE assay
quantity.name: IC50 (nM)

>>> val("Cn1cc(-c2cnc3c(-c4csc(C(=O)N[C@@H]5CCCC[C@@H]5N)c4)cnn3c2)cn1 (racemic)")
3.2
>>> val("Cn1cc(-c2cnc3c(-c4csc(C(=O)NCC(F)(F)F)c4)cnn3c2)cn1")
11
>>> val("Cc1sc(C(=O)N[C@@H]2[C@H](N)CCCC2(F)F)cc1-c1cnn2cc(Cl)cnc12")
130

---

Biological target: Rho-associated protein kinase 2 (Homo sapiens)
Sequence (O75116 whole entry, the tested form may be a part): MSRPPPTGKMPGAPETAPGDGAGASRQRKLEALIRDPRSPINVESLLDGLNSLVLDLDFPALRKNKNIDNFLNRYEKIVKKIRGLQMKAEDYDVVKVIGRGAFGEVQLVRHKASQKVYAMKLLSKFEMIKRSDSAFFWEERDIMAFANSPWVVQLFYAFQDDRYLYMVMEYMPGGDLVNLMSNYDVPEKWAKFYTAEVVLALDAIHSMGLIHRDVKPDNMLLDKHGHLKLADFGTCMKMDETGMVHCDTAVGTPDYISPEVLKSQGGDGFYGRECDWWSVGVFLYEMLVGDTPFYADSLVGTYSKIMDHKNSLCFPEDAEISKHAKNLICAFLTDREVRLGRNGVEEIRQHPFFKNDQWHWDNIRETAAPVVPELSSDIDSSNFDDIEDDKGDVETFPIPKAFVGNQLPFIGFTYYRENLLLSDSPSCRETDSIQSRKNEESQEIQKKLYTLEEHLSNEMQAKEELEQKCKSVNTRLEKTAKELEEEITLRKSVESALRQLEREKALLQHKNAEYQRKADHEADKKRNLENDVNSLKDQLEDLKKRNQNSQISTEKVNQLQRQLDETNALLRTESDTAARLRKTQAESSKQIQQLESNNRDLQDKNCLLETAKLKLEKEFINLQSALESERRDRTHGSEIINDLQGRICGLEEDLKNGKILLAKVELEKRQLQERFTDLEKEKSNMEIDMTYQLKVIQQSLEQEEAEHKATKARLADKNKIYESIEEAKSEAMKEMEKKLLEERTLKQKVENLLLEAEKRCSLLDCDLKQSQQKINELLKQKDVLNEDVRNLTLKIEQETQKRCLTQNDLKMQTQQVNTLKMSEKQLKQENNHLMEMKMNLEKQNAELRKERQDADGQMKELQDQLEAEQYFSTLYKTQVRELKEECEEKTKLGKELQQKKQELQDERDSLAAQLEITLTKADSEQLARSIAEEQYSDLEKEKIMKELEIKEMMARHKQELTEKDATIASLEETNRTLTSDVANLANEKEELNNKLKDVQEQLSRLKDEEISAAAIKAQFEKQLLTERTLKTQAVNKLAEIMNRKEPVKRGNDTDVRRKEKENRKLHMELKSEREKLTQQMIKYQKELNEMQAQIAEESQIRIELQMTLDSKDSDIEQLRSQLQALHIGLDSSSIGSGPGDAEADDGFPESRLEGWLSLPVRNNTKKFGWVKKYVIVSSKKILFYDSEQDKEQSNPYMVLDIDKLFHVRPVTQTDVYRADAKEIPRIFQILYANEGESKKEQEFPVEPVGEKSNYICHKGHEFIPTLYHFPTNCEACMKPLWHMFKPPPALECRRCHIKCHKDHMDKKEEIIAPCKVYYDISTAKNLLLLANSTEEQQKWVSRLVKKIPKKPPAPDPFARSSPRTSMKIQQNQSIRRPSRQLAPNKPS
Test: Inhibition of recombinant human N-terminal GST-tagged ROCK2 (1 to 552 residues) catalytic domain expressed in baculovirus expression system by Z'-LYTE assay
pIC50: −log10 of the molar value.
quantity.name: pIC50

>>> val("O=C(NCC(F)(F)F)c1cc(-c2cnn3cc(-c4ccc(OCCN5CCCCC5)cc4)cnc23)cs1")
6.37
>>> val("Cn1cc(-c2cnc3c(-c4csc(C(=O)N[C@@H]5CCCC[C@@H]5N)c4)cnn3c2)cn1 (racemic)")
7.28
>>> val("Cc1sc(C(=O)N[C@@H]2[C@H](N)CCCC2(F)F)cc1-c1cnn2cc(Cl)cnc12")
5.96
>>> val("Cn1cc(-c2cnc3c(-c4csc(C(=O)NCC(F)(F)F)c4)cnn3c2)cn1")
6.25

---

Target: MDR1 (ABCB1, P-glycoprotein) (Homo sapiens)
Test: Substrate activity at human MDR1 expressed in LLC-PK1 cells assessed as efflux ratio of permeability across basolateral to apical over apical to basolateral side at 5 uM
Type: ADME, cell-based
// returns false (0) unless efflux ratio at 5 µM is strictly below 10, in which case true (1)

>>> group_label("Cn1cc(-c2cnc3c(-c4csc(C(=O)NCCC(N)C(F)(F)F)c4)cnn3c2)cn1 (configuration not stated)")
"true (1)"
>>> group_label("Cn1cc(-c2cnc3c(-c4csc(C(=O)N[C@@H]5CCCC[C@@H]5N)c4)cnn3c2)cn1 (racemic)")
"false (0)"
>>> group_label("Cn1cc(-c2cnc3c(-c4csc(C(=O)NCCC(N)CF)c4)cnn3c2)cn1 (configuration not stated)")
"false (0)"
>>> group_label("Cn1cc(-c2cnc3c(-c4csc(C(=O)NCCC(N)C(F)F)c4)cnn3c2)cn1 (configuration not stated)")
"false (0)"
>>> group_label("Cc1sc(C(=O)N[C@@H]2[C@H](N)CCCC2(F)F)cc1-c1cnn2cc(Cl)cnc12")
"true (1)"
>>> group_label("Cn1cc(-c2cnc3c(-c4csc(C(=O)NCC(F)(F)F)c4)cnn3c2)cn1")
"true (1)"

---

Biological target: Tyrosine-protein kinase JAK2 (Homo sapiens)
Sequence (O60674 whole entry, the tested form may be a part): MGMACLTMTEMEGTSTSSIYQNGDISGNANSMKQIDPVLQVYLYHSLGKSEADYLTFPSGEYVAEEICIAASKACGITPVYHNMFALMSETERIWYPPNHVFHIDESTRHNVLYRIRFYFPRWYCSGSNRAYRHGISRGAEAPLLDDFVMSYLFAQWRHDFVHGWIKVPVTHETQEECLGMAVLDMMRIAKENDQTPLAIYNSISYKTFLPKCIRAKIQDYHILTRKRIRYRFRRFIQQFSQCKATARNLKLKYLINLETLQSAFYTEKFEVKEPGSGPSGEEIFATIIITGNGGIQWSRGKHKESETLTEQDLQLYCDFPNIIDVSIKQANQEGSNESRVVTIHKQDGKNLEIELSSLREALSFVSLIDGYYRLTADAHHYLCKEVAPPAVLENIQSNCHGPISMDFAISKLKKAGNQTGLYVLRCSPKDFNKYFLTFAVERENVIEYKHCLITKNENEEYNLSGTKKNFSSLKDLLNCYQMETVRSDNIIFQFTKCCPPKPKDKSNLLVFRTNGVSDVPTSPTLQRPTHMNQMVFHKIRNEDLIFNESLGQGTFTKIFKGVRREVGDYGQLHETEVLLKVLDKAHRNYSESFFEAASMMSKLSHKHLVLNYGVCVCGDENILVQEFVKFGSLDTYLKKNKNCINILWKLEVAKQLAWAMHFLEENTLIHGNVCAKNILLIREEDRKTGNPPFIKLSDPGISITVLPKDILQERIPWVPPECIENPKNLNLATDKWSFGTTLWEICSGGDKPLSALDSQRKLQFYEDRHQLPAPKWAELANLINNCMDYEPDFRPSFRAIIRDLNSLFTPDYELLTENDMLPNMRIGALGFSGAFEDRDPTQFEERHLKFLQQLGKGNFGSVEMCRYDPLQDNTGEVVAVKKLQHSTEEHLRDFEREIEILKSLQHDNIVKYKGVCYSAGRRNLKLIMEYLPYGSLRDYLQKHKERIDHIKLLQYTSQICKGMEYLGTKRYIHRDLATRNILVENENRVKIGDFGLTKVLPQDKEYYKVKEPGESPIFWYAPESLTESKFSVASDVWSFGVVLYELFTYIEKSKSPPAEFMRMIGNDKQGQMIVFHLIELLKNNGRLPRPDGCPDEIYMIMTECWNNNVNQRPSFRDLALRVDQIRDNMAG
Test: Inhibition of recombinant human GST-tagged cytoplasmic JAK2 (809 to 1153 residues) expressed in baculovirus expression system by Z'-LYTE assay
pIC50: −log10 of the molar value.
# Lookup of reported pIC50 keyed by entry
quantity.name: pIC50

>>> val("O=C(NCC(F)(F)F)c1cc(-c2cnn3cc(-c4ccc(OCCN5CCCCC5)cc4)cnc23)cs1")
5.62
>>> val("Cn1cc(-c2cnc3c(-c4csc(C(=O)NCC(F)(F)F)c4)cnn3c2)cn1")
5.92
>>> val("Cn1cc(-c2cnc3c(-c4csc(C(=O)N[C@@H]5CCCC[C@@H]5N)c4)cnn3c2)cn1 (racemic)")
7.19
>>> val("Cc1sc(C(=O)N[C@@H]2[C@H](N)CCCC2(F)F)cc1-c1cnn2cc(Cl)cnc12")
5.36
